Read-out record for CDK2 (human) (UniProt P24941): log10(IC50)
Recorded IC50 (log10, µM)

// known answers, use as guide
{"compound": "CC(C)n1nnc2c(NCc3ccc(O)cc3)nc(N[C@H]3CC[C@H](N)CC3)nc21", "target.entity": "CDK2 (human) (UniProt P24941)", "log10(IC50)": 0.45}
{"compound": "CC(C)C(CO)Nc1nc(NCc2ccccc2)c2nnn(C(C)C)c2n1 (stereo unspecified)", "target.entity": "CDK2 (human) (UniProt P24941)", "log10(IC50)": 0.86}
{"compound": "CCC(CO)Nc1nc(NCc2ccccc2)c2nnn(C(C)C)c2n1 (stereo unspecified)", "target.entity": "CDK2 (human) (UniProt P24941)", "log10(IC50)": 0.61}

Entry CC(C)n1nnc2c(Nc3cccc(Cl)c3)nc(N[C@H]3CC[C@H](N)CC3)nc21 has what log10(IC50)?
0.04

What about this compound? COc1ccc(CNc2nc(N[C@@H]3CCCC[C@@H]3N)nc3c2nnn3C(C)C)cc1O
1.14

Also, CC(C)n1nnc2c(NCc3ccccc3O)nc(N[C@H]3CC[C@H](N)CC3)nc21 please.
1.21
